- Tested on: Pseudomonas aeruginosa (ATCC 27883)
- Assay conditions: ATCC 27883
Non-standard residues stand in square brackets, D forms with d. Residues, ends and D or L forms follow the SMILES beside them. Dip = N[C@H](C(=O)O)C(c1ccccc1)c1ccccc1; 2Nal = N[C@@H](Cc1ccc2ccccc2c1)C(=O)O; d2Nal = N[C@H](Cc1ccc2ccccc2c1)C(=O)O; Dab = NCC[C@H](N)C(=O)O
Observable: MIC P. aeruginosa ATCC 27883 (µg/mL)
Field format: number, assumed µg/mL, no unit text.

# example entries with known answers
Compound	Tested on	MIC P. aeruginosa ATCC 27883, µg/mL
N=C(N)NCCC[C@H](NC(=O)[C@H](CCCNC(=N)N)NC(=O)[C@@H](N)CCCNC(=N)N)C(=O)N[C@@H](Cc1c[nH]c2ccccc12)C(=O)N[C@H](C(=O)N[C@H](C(=O)O)C(c1ccccc1)c1ccccc1)C(c1ccccc1)c1ccccc1 [IFX-020-1, NH2-R-R-R-Trp-Dip-Dip-OH] (H-RRRW[Dip][Dip]-OH)	Pseudomonas aeruginosa (ATCC 27883)	25
N=C(N)NCCC[C@@H]1NC(=O)[C@H](CCN)NC(=O)[C@@H](Cc2ccc3ccccc3c2)NC(=O)[C@@H](Cc2ccc3ccccc3c2)NC(=O)[C@H](Cc2c[nH]c3ccccc23)NC(=O)[C@H](CCN)NC(=O)[C@@H](CCCNC(=N)N)NC(=O)[C@H](CCCNC(=N)N)NC(=O)[C@@H](CCCNC(=N)N)NC1=O [IFX-057, c[Dab-Arg-arg-Arg-arg-Dab-Trp-naI-naI]] (cyclo([Dab]R[dR]R[dR][Dab]W[d2Nal][d2Nal]))	Pseudomonas aeruginosa (ATCC 27883)	32

Next compound, MIC P. aeruginosa ATCC 27883 to be filled in.
Prompt: Any idea what its MIC P. aeruginosa ATCC 27883 is? The compound is N=C(N)NCCC[C@@H]1NC(=O)[C@H](CCCNC(=N)N)NC(=O)[C@H](CCCNC(=N)N)NC(=O)[C@H](Cc2ccc3ccccc3c2)NC(=O)[C@H](Cc2ccc3ccccc3c2)NC(=O)[C@H](Cc2ccc3ccccc3c2)NC(=O)[C@H](CCCNC(=N)N)NC(=O)[C@H](CCCNC(=N)N)NC1=O [IFX-013, c[Arg-Arg-Arg-Arg-Arg-NaI-NaI-NaI]] (cyclo([2Nal][2Nal][2Nal]RRRRR))
Completion: 25

====

The entries below come with measured MIC P. aeruginosa ATCC 27883 values attached.
- Test system: Pseudomonas aeruginosa (ATCC 27883)
- Assay conditions: ATCC 27883
Non-standard residues stand in square brackets, D forms with d. Residues, ends and D or L forms follow the SMILES beside them. dDip = N[C@@H](C(=O)O)C(c1ccccc1)c1ccccc1; Dip = N[C@H](C(=O)O)C(c1ccccc1)c1ccccc1; 2Nal = N[C@@H](Cc1ccc2ccccc2c1)C(=O)O; d2Nal = N[C@H](Cc1ccc2ccccc2c1)C(=O)O

Molecule	MIC P. aeruginosa ATCC 27883
N=C(N)NCCC[C@H]1NC(=O)[C@@H](CCCNC(=N)N)NC(=O)[C@@H](CCCNC(=N)N)NC(=O)[C@@H](Cc2ccc3ccccc3c2)NC(=O)[C@@H](Cc2ccc3ccccc3c2)NC(=O)[C@@H](Cc2c[nH]c3ccccc23)NC(=O)[C@@H](CCCNC(=N)N)NC1=O [IFX-115, c[arg-arg-arg-arg-trp-naI-naI]] (cyclo([dR][dR][dR][dR][dW][d2Nal][d2Nal]))	25 µg/mL
N=C(N)NCCC[C@H]1NC(=O)[C@H](Cc2ccc3ccccc3c2)NC(=O)[C@H](Cc2ccc3ccccc3c2)NC(=O)[C@@H](Cc2c[nH]c3ccccc23)NC(=O)[C@@H](CCCNC(=N)N)NC(=O)[C@@H](CCCNC(=N)N)NC(=O)[C@@H](CCCNC(=N)N)NC1=O [IFX-122, c[arg-arg-arg-arg-trp-NaI-NaI]] (cyclo([2Nal][2Nal][dR][dR][dR][dR][dW]))	32 µg/mL
N=C(N)NCCC[C@@H]1NC(=O)[C@H](CCCNC(=N)N)NC(=O)[C@@H](Cc2ccc3ccccc3c2)NC(=O)[C@@H](Cc2ccc3ccccc3c2)NC(=O)[C@H](Cc2c[nH]c3ccccc23)NC(=O)[C@@H](CCCNC(=N)N)NC(=O)[C@@H](CCCNC(=N)N)NC(=O)[C@H](CCCNC(=N)N)NC1=O [IFX-125, c[Arg-Arg-Arg-arg-arg-Trp-naI-naI]] (cyclo(RRR[dR][dR]W[d2Nal][d2Nal]))	32 µg/mL
N=C(N)NCCC[C@@H]1NC(=O)[C@H](CCCNC(=N)N)NC(=O)[C@H](Cc2ccc3ccccc3c2)NC(=O)[C@H](Cc2ccc3ccccc3c2)NC(=O)[C@H](CCCNC(=N)N)NC(=O)[C@H](CCCNC(=N)N)NC(=O)[C@H](Cc2ccc3ccccc3c2)NC1=O [IFX-019, c[Arg-Arg-NaI-NaI-Arg-Arg-NaI]] (cyclo(R[2Nal]RR[2Nal][2Nal]R))	50 µg/mL
NCCCC[C@@H]1NC(=O)[C@@H](CCCCN)NC(=O)[C@H](CCCCN)NC(=O)[C@@H](Cc2ccc3ccccc3c2)NC(=O)[C@@H](Cc2ccc3ccccc3c2)NC(=O)[C@H](Cc2c[nH]c3ccccc23)NC(=O)[C@@H](CCCCN)NC1=O [IFX-129, c[Lys-lys-Lys-lys-Trp-naI-naI]] (cyclo(K[dK]K[dK]W[d2Nal][d2Nal]))	64 µg/mL

Prompt: Name the reported MIC P. aeruginosa ATCC 27883 value associated with the molecule NCCCC[C@@H]1NC(=O)[C@H](CCCCN)NC(=O)[C@H](CCCCN)NC(=O)[C@@H](Cc2ccc3ccccc3c2)NC(=O)[C@@H](Cc2ccc3ccccc3c2)NC(=O)[C@@H](Cc2c[nH]c3ccccc23)NC(=O)[C@H](CCCCN)NC(=O)[C@H](CCCCN)NC1=O [IFX-132, c[Lys-Lys-Lys-Lys-Lys-trp-naI-naI]] (cyclo(KKKKK[dW][d2Nal][d2Nal]))
Completion: 128 µg/mL

Prompt: Now consider N=C(N)NCCC[C@@H]1NC(=O)[C@H](C(c2ccccc2)c2ccccc2)NC(=O)[C@@H](C(c2ccccc2)c2ccccc2)NC(=O)[C@H](C(c2ccccc2)c2ccccc2)NC(=O)[C@@H](CCCNC(=N)N)NC(=O)[C@H](CCCNC(=N)N)NC(=O)[C@@H](CCCNC(=N)N)NC1=O [IFX-071, c[Arg-arg-Arg-arg-Dip-dip-Dip]] (cyclo(R[dR]R[dR][Dip][dDip][Dip])) and answer again.
Completion: 12.5 µg/mL
